biological target: GLP-1 Receptor (Homo sapiens, UniProt P43220); construct: host or cells: HEK293/CRE-Luc; assay: GLP-1R agonist cAMP stimulation assay; type: cell-based; conditions: HEK293/CRE-Luc cell line stably expressing the GLP-1 Receptor; 30 min at 37° C.; cAMP dynamic 2 Kit
Sequence (P43220 24-463): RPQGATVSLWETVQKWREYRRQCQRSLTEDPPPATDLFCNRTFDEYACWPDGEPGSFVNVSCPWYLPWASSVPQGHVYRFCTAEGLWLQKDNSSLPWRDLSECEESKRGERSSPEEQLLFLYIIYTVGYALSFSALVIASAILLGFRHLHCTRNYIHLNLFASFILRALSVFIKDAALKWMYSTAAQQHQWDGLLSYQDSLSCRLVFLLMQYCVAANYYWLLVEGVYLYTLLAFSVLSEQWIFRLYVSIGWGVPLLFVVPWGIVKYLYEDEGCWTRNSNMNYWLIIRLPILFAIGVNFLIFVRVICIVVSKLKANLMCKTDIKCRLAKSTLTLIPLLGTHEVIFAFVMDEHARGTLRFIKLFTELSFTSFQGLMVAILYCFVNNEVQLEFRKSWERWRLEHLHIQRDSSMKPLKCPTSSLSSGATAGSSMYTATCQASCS
pEC50: −log10 of the molar value.
# pEC50 per entry

Solved cases below.
{"Compound": "N#CC1(Cc2cc(-c3nnc(C(F)(F)F)[nH]3)cnc2CN2CCC(Oc3ccnc(Cc4ccc(Cl)cc4F)n3)CC2)CC1", "pEC50": "7.00 to 9.00"}
{"Compound": "CC1(c2ccc(Cl)cc2F)Oc2c(F)ccc(C3CCN(Cc4ncc(-c5nnc(C(F)(F)F)[nH]5)cc4CC4(C#N)CC4)CC3)c2O1 (stereo not drawn)", "pEC50": "> 9.00"}

Input line: Item CC1(c2ccc(C(F)(F)F)cc2Cl)Oc2cccc(C3CCN(Cc4ncc(-c5nnc(C(F)(F)F)[nH]5)cc4CC4(C#N)CC4)CC3)c2O1 (stereo not drawn) has what recorded pEC50?
Output line: > 9.00

Input line: // next record C[C@]1(c2ccc(Cl)cc2F)Oc2cccc(C3CCN(Cc4ncc(C5CC5C(=O)O)cc4CC4(C#N)CC4)CC3)c2O1 (stereo partly drawn)
Output line: 7.00 to 9.00

---

molecular target: GLP-1 Receptor (Homo sapiens); test: GLP-1R agonist cAMP stimulation assay; details: HEK293/CRE-Luc cell line stably expressing the GLP-1 Receptor; 30 min at 37° C.; cAMP dynamic 2 Kit
pEC50: −log10 of the molar value.
Measurement name: pEC50

Solved cases below.
{"Molecule": "N#CC1(Cc2cc(-c3nnc(C(F)(F)F)[nH]3)cnc2CN2CCC(c3cccc(OCc4ccc(Cl)cc4F)n3)CC2)CC1 [Example 32]", "System under test": "GLP-1 Receptor (Homo sapiens)", "pEC50": "> 9.00"}
{"Molecule": "Cc1cc(-c2noc(=O)[nH]2)cnc1CN1CCC(c2cccc(OCc3ccc(Cl)cc3F)n2)CC1 [Example 95]", "System under test": "GLP-1 Receptor (Homo sapiens)", "pEC50": "< 7.00"}
{"Molecule": "C[C@]1(c2ccc(Cl)cc2F)Oc2cccc(C3CCN(Cc4ncc(-c5nnc(C(F)F)[nH]5)cc4CC4(C#N)CC4)CC3)c2O1 [Example 17]", "System under test": "GLP-1 Receptor (Homo sapiens)", "pEC50": "> 9.00"}
{"Molecule": "Cc1cc(-c2cnn(C)c(=O)c2)cnc1CN1CCC(c2cccc(OCc3ccc(Cl)cc3F)n2)CC1 [Example 100]", "System under test": "GLP-1 Receptor (Homo sapiens)", "pEC50": "< 7.00"}
{"Molecule": "Cc1ccc(C2(C)Oc3cccc(C4CCN(Cc5ncc(-c6nnc(C(F)(F)F)[nH]6)cc5CC5(C#N)CC5)CC4)c3O2)cn1 (stereo not shown) [Example 11]", "System under test": "GLP-1 Receptor (Homo sapiens)", "pEC50": "> 9.00"}

Input line: Item CC1(c2ccc(Cl)cc2F)Oc2cccc(C3CCN(Cc4ncc(-c5nnc(C(F)(F)F)[nH]5)cc4CC4(C#N)CC4)CC3O)c2O1 (single isomer, unassigned) [Example 24] has what recorded pEC50?
Output line: > 9.00

Input line: // next record N#CC1(Cc2cc(-c3nnc(C(F)(F)F)[nH]3)cnc2CN2CC=C(c3cccc(OCc4ccc(Cl)cc4F)n3)CC2)CC1 [Example 47]
Output line: > 9.00

Input line: // next record CN(C)C(=O)Cc1cc(-c2nnc(C(F)(F)F)[nH]2)cnc1CN1CCC(c2cccc3c2O[C@@](C)(c2ccc(Cl)cc2F)O3)CC1 [Example 56]
Output line: 7.00 to 9.00

Input line: // next record C[C@H]1CN(c2ccnc(OCc3ccc(Cl)cc3F)n2)CCN1Cc1ncc(-c2nnc(C(F)(F)F)[nH]2)cc1CC1(C#N)CC1 [Example 91]
Output line: 7.00 to 9.00

Input line: // next record N#CC1(Cc2cc(-c3nnc(C(F)(F)F)[nH]3)cnc2CN2CCC(c3cccc(OCc4ccc(Cl)c5ccoc45)n3)CC2)CC1 [Example 64]
Output line: > 9.00

Input line: // next record N#CC1(Cc2cc(-c3nnc(C(F)(F)F)[nH]3)cnc2CN2CCC(c3ccc(F)c(OCc4ccc(Cl)c5ccoc45)n3)CC2)CC1 [Example 63]
Output line: > 9.00

Input line: // next record CS(=O)(=O)Cc1cc(-c2nnc(C(F)(F)F)[nH]2)cnc1CN1CCC(c2cccc(OCc3ccc(Cl)cc3F)n2)CC1 [Example 57]
Output line: 7.00 to 9.00

Input line: // next record C[C@]1(c2ccc(Cl)cn2)Oc2cccc(C3CCN(Cc4ncc(-c5nnn[nH]5)cc4CC4(C#N)CC4)CC3)c2O1 [Example 75]
Output line: > 9.00

---

# EC50 per entry
target: GLP-1 Receptor (Homo sapiens, UniProt P43220); assay: GLP-1R agonist cAMP stimulation assay; conditions: HEK293/CRE-Luc cell line stably expressing the GLP-1 Receptor; 30 min at 37° C.; cAMP dynamic 2 Kit

Input line: Item COCCc1cc(-c2nnc(C(F)(F)F)[nH]2)cnc1CN1CCC(c2cccc3c2O[C@@](C)(c2ccc(Cl)cn2)O3)CC1 has what recorded EC50?
Output line: 1 to 100 nM

Input line: // next record CS(=O)(=O)Cc1cc(-c2nnc(C(F)(F)F)[nH]2)cnc1CN1CCC(c2ccc(F)c(OCc3ccc(Cl)cc3F)n2)CC1
Output line: < 1 nM

Input line: // next record COCC1(Cc2cc(-c3nnc(C(F)(F)F)[nH]3)cnc2CN2CCC(c3cccc4c3OC(C)(c3ccc(Cl)cn3)O4)CC2)CC1 (stereo not drawn)
Output line: 1 to 100 nM

Input line: // next record C[C@]1(c2ccc(Cl)cc2F)Oc2cccc(C3CCN(Cc4ncc(-c5nnc(C(F)(F)F)[nH]5)cc4CC4CCS4(=O)=O)CC3)c2O1 (stereo partly drawn)
Output line: 1 to 100 nM

Input line: // next record CC1(c2ccc(Cl)cc2Cl)Oc2cccc(C3CCN(Cc4ncc(-c5nnc(C(F)(F)F)[nH]5)cc4CC4(C#N)CC4)CC3)c2O1 (single isomer, unassigned) [Example 3]
Output line: < 1 nM

Input line: // next record Cc1cc(-c2cnn(C)c2)cnc1CN1CCC(c2cccc(OCc3ccc(Cl)cc3F)n2)CC1
Output line: > 100 nM

---

biological target: GLP-1 Receptor (Homo sapiens); test: GLP-1R agonist cAMP stimulation assay; details: HEK293/CRE-Luc cell line stably expressing the GLP-1 Receptor; 30 min at 37° C.; cAMP dynamic 2 Kit
pEC50: −log10 of the molar value.
# pEC50 per entry

Solved cases below.
{"Compound": "CC1(c2ccc(Cl)cc2F)Oc2ccc(F)c(C3CCN(Cc4ncc(-c5nnc(C(F)(F)F)[nH]5)cc4CC4(C#N)CC4)CC3)c2O1 (stereo not drawn)", "Measured": "> 9.00"}
{"Compound": "CC1(c2ccc(F)cc2F)Oc2cccc(C3CCN(Cc4ncc(-c5nnc(C(F)(F)F)[nH]5)cc4CC4(C#N)CC4)CC3)c2O1 (stereo not drawn)", "Measured": "> 9.00"}
{"Compound": "C[C@]1(c2ccc(Cl)cc2F)Oc2cccc(C3CCN(Cc4ncc(-c5nnc(C(F)(F)F)[nH]5)cc4C#N)CC3)c2O1", "Measured": "7.00 to 9.00"}
{"Compound": "C[C@]1(c2ccc(Cl)cc2F)Oc2cccc(C3CCN(Cc4ncc(-c5nnn[nH]5)cc4CC4(C#N)CC4)CC3)c2O1", "Measured": "> 9.00"}
{"Compound": "Cc1cc(-c2nnc(C(F)(F)F)[nH]2)cnc1CN1CCC(c2cccc(OCc3ccc(Cl)cc3F)n2)CC1", "Measured": "7.00 to 9.00"}

Proceed to the following item.
Input line: Item CC1(c2ccc(F)cc2Cl)Oc2cccc(C3CCN(Cc4ncc(-c5nnc(C(F)(F)F)[nH]5)cc4CC4(C#N)CC4)CC3)c2O1 (stereo not drawn) has what recorded pEC50?
Output line: > 9.00

---

molecular target: GLP-1 Receptor (Homo sapiens, UniProt P43220); construct: host or cells: HEK293/CRE-Luc; assay: GLP-1R agonist cAMP stimulation assay; format: cell-based; conditions: HEK293/CRE-Luc cell line stably expressing the GLP-1 Receptor; 30 min at 37° C.; cAMP dynamic 2 Kit
pEC50: −log10 of the molar value.
Measurement name: pEC50

{"Molecule": "Cc1cc(-c2nnc(C(F)(F)F)[nH]2)nnc1CN1CCC(c2cccc3c2O[C@@](C)(c2ccc(Cl)cc2F)O3)CC1", "pEC50": "7.00 to 9.00"}
{"Molecule": "C[C@]1(c2ccc(Cl)cc2F)Oc2cccc(C3CCN(Cc4ncc(-c5nnc(C(F)(F)F)[nH]5)cc4CC4(C#N)CC4)CC3F)c2O1 (single isomer, unassigned) [Example 27]", "pEC50": "> 9.00"}

Proceed to the following item.
Input line: Item CC1(c2ccc(Cl)cc2Cl)Oc2cccc(C3CCN(Cc4ncc(-c5nnc(C(F)(F)F)[nH]5)cc4CC4(C#N)CC4)CC3)c2O1 (single isomer, unassigned) [Example 2] has what recorded pEC50?
Output line: > 9.00

The reported numbers originate from patent US20250145596A1.
